meta.source: patent US6765022B2

Structures can show the parent of a compound that is named as a salt.

{"Molecule": "Oc1ccc(CCCN[C@H]2CC[C@H](c3ccccc3)CC2)cc1", "melting point": "211 to 214 °C"}
{"Molecule": "CN(CCCc1ccc(O)cc1)[C@H]1CC[C@H](c2ccccc2)CC1 (as salt: HCl)", "melting point": "249 to 255 °C"}
{"Molecule": "Oc1ccc(CCN[C@H]2CC[C@H](c3ccccc3)CC2)cc1 (as salt: HCl)", "melting point": "238 to 241 °C"}
{"Molecule": "CN(CCc1ccc(O)cc1)[C@H]1CC[C@H](c2ccccc2)CC1 (as salt: HCl)", "melting point": "97 to 105 °C"}
